# EXPERIMENTAL SYSTEM: T1, EsCas13d, nuclease-dead (Eubacterium siraeum, UniProt B0MS50, R295A;H300A;R849A;H854A)
# T1 sequence: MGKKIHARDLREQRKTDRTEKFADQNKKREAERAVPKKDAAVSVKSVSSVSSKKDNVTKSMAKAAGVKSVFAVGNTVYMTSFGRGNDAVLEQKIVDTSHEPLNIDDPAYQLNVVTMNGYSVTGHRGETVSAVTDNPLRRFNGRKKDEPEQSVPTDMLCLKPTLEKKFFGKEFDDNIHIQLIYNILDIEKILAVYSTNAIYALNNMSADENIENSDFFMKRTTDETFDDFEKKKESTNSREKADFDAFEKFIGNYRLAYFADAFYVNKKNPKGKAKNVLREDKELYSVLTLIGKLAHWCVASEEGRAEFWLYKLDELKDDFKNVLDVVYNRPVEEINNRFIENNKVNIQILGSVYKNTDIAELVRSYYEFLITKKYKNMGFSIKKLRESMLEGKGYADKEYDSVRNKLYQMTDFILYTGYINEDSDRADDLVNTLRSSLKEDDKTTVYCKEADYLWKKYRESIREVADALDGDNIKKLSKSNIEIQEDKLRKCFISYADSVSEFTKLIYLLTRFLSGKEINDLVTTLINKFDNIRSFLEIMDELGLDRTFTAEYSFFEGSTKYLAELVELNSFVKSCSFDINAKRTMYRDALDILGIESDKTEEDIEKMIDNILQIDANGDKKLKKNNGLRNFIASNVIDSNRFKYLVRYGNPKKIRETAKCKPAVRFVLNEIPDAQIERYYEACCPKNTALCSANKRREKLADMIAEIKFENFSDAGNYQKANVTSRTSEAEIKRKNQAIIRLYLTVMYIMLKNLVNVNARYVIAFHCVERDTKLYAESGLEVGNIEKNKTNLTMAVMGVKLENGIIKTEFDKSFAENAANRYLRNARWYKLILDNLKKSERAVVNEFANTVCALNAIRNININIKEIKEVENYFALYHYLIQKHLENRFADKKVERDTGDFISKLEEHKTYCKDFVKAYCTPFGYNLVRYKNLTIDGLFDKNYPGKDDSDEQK
# EXPERIMENT SUMMARY: crRNA (strand 1, pre-loaded); Mg2+; 40 mM Tris-HCl pH 7.5, 150 mM NaCl, 6 mM MgCl2, 1 mM DTT, 0.1% Tween-20, 0.2 mg/ml BSA; 25 C; 10 min per concentration, then washed
# CONDITION LABEL: tags: His6-TwinStrep-SUMO cleaved; N-terminal SNAP kept (SNAP-Surface 488); label: 3' end held by stalled T7 RNA polymerase
Binary call on Kd with cut-off 20 nM: strictly below means true, and equality or higher means false.

Would you please look over these solved cases?
- BINDER: "target 2 MT 5'PFS AAC 3'PFS UUG (mixed) RNA 1: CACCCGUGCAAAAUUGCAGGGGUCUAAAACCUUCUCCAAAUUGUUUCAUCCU RNA 2: GGGAAUGGAUCCACAUCUACGAAUUCAACAGGAUGAAACAAUUUGGAGAAGUUGAGAUCGGAAGAGCACACGU"
  LABEL: "true"
- BINDER: "target 1 insG 3' of 4,insG 3' of 1 (mixed) RNA 1: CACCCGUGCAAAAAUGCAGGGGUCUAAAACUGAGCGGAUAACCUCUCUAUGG RNA 2: GGGAAUGGAUCCACAUCUACGAAUUCGUACCAUAGAGAGGUUAUCCGCGUCAGCCGAGAUCGGAAGAGCACACGU"
  LABEL: "true"
- BINDER: "target 2 MT 5'PFS GCA 3'PFS ACA (mixed) RNA 1: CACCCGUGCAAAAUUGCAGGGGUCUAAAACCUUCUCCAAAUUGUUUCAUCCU RNA 2: GGGAAUGGAUCCACAUCUACGAAUUCGCAAGGAUGAAACAAUUUGGAGAAGACAAGAUCGGAAGAGCACACGU"
  LABEL: "true"

Exam item: Please determine if target 1 A1C,A9C (mixed) RNA 1: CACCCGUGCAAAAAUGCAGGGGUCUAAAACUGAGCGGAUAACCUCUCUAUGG RNA 2: GGGAAUGGAUCCACAUCUACGAAUUCGUACCAUAGAGAGGUUCUCCGCUCCCCGAGAUCGGAAGAGCACACGU is below 20 nM in terms of Kd.
Marked response: false

Exam item: // query: target 1 C2G,G15A (mixed) RNA 1: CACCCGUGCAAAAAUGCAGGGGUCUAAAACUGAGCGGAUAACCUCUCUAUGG RNA 2: GGGAAUGGAUCCACAUCUACGAAUUCGUACCAUAGAAAGGUUAUCCGCUGACCGAGAUCGGAAGAGCACACGU
Marked response: true

Exam item: // query: target 2 MT 5'PFS AAA 3'PFS CCA (mixed) RNA 1: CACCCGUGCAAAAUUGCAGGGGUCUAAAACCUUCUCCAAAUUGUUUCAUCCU RNA 2: GGGAAUGGAUCCACAUCUACGAAUUCAAAAGGAUGAAACAAUUUGGAGAAGCCAAGAUCGGAAGAGCACACGU
Marked response: true

Exam item: // query: target 1 MT 5'PFS GUC 3'PFS UCG (mixed) RNA 1: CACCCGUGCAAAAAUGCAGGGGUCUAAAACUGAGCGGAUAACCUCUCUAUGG RNA 2: GGGAAUGGAUCCACAUCUACGAAUUCGUCCCAUAGAGAGGUUAUCCGCUCAUCGAGAUCGGAAGAGCACACGU
Marked response: true

Exam item: // query: target 1 MT 5'PFS GAG 3'PFS AAU (mixed) RNA 1: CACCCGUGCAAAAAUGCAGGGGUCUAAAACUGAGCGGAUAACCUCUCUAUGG RNA 2: GGGAAUGGAUCCACAUCUACGAAUUCGAGCCAUAGAGAGGUUAUCCGCUCAAAUAGAUCGGAAGAGCACACGU
Marked response: false

Exam item: // query: target 3 insA 3' of 21,insC 3' of 21 (mixed) RNA 1: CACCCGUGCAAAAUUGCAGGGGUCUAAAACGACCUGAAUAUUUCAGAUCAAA RNA 2: GGGAAUGGAUCCACAUCUACGAAUUCGUUUUACUGAUCUGAAAUAUUCAGGUCUGCAGAUCGGAAGAGCACACGU
Marked response: false

Exam item: // query: target 2 MT 5'PFS GCA 3'PFS CUC (mixed) RNA 1: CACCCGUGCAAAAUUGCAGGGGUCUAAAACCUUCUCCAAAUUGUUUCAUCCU RNA 2: GGGAAUGGAUCCACAUCUACGAAUUCGCAAGGAUGAAACAAUUUGGAGAAGCUCAGAUCGGAAGAGCACACGU
Marked response: false

The values you see were collected from paper PMC10786891.
